# System: IGROV1 complex spheroids (HUVEC, MSC), viability % test/control
# assay-summary: Anticancer human tumor IGROV1 cell line growth inhibition [GQUAD];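 also: spheroids exposed to compounds for 7 days before readout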
# test-parameters: curve of first compound; second compound 1 µM
pIC50: −log10 of the molar value.
Each record here notes measured pIC50.

Solved cases (4 shown):
- molecule: "CCCS(=O)(=O)Nc1ccc(F)c(C(=O)c2c[nH]c3ncc(-c4ccc(Cl)cc4)cc23)c1F + Cc1[nH]c2ccc(F)cc2c1-c1nc2c3cccnc3c3ncccc3c2[nH]1"
  observed-measurement: "> 7.50"
- molecule: "C=CC(=O)N1CCN(c2nc(=O)n(-c3c(C)ccnc3C(C)C)c3nc(-c4c(O)cccc4F)c(F)cc23)C(C)C1 (stereo not given) + CN(C)c1ccc(Nc2c3ccc(NC(=O)CCN4CCCC4)cc3nc3cc(NC(=O)CCN4CCCC4)ccc23)cc1"
  observed-measurement: "< 5.00"
- molecule: "CCc1c2c(nc3ccc(O)cc13)-c1cc3c(c(=O)n1C2)COC(=O)[C@]3(O)CC + Cc1[nH]c2ccc(F)cc2c1-c1nc2c3cccnc3c3ncccc3c2[nH]1"
  observed-measurement: "> 9.00"
- molecule: "COc1ccc([C@@H](O)c2cc(-c3ncnc4cc(N5CCOCC5)ccc34)c(F)cc2Cl)nn1 + CN(C)c1ccc(Nc2c3ccc(NC(=O)CCN4CCCC4)cc3nc3cc(NC(=O)CCN4CCCC4)ccc23)cc1"
  observed-measurement: 6.18

Lab note: next molecule to report on.
Query: For the molecule Cc1[nH]c2ccccc2c1CCNCc1ccc(/C=C/C(=O)NO)cc1 + Cc1cnc(CNC(=O)c2c(=O)c3ccc(N4CCCN(C)CC4)nc3n3c2sc2ccccc23)cn1 , what pIC50 is on record?
Response: > 9.00
